Observed IC50 values for UniProtKB P48449 are listed in what follows.
Assay Metric: IC50 (µM)

- Smiles Input: "O=C(CCc1ccc(CN2CCCC2)cc1)Cn1cnc2sc(-c3ccccc3)cc2c1=O"
  Recorded Result: 5.02
- Smiles Input: "CCCCCCCCCCCC[N+](C)(C)[O-]"
  Recorded Result: 6.31

I = S=C(NCc1ccccc1)Nc1ccc(Cc2ccncc2)cc1
II = CN(C)Cc1ccc(CNC(=O)COc2ccc3ccccc3c2)cc1
-- ask Kindly identify which of I and II has the larger recorded IC50 value. Label of pick, please.
-- reply II

###

Target Or Test System: UniProt:P48449
Sequence (whole entry): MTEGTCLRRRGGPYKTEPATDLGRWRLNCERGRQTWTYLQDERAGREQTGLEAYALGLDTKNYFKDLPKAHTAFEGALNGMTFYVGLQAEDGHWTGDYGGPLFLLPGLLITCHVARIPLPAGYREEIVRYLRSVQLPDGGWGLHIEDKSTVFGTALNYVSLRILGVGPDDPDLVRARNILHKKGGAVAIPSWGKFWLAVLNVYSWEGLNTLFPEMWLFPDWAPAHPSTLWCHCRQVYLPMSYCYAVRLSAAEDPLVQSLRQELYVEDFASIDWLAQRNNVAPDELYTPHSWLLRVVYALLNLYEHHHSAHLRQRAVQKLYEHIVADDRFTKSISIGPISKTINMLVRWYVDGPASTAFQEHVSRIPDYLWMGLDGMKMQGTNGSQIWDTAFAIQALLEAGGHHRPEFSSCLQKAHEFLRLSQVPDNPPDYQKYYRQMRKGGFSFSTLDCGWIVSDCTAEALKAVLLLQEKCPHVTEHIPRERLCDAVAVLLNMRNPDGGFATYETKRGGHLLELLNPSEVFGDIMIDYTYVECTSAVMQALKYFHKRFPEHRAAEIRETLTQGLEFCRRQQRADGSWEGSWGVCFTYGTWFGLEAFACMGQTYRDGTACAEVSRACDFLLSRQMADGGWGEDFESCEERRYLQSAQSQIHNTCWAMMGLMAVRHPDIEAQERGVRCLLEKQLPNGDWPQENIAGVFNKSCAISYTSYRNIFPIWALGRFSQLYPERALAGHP
Assay Text: Inhibition of human OSC expressed in Saccharomyces cerevisiae at 20 uM by gas chromatography relative to LDAO2
Assay Metric: inhibition (%)

Below are worked cases with known answers.
- Smiles Input: "O=C(CCc1ccc(CN2CCCC2)cc1)Cn1cnc2sc(-c3ccccc3)cc2c1=O"
  Units Symbol: "%"
  inhibition: 87
- Smiles Input: "CN(C)Cc1ccc(CNC(=O)COc2ccc3ccccc3c2)cc1"
  Units Symbol: "%"
  inhibition: 83
- Smiles Input: "COc1ccc(-n2c(C)cc(CNCc3ccc(CN(C)C)cc3)c2C)cc1"
  Units Symbol: "%"
  inhibition: 75
- Smiles Input: "CN(C)Cc1ccc(CNC(=O)Nc2ccc(Cl)cc2)cc1"
  Units Symbol: "%"
  inhibition: 97

P = S=C(NCc1ccccc1)Nc1ccc(Cc2ccncc2)cc1
Q = O=C(Cc1ccc(Cl)cc1)c1ccc(C(=O)NCCCn2ccnc2)[nH]1
-- ask Kindly identify which of P and Q has the larger recorded inhibition value. Label of pick, please.
-- reply P
(P: 96%, Q: 59%)
